# measured on: mGluR5 (Rattus norvegicus)
# Sequence (P31424 21-875 limits assumed): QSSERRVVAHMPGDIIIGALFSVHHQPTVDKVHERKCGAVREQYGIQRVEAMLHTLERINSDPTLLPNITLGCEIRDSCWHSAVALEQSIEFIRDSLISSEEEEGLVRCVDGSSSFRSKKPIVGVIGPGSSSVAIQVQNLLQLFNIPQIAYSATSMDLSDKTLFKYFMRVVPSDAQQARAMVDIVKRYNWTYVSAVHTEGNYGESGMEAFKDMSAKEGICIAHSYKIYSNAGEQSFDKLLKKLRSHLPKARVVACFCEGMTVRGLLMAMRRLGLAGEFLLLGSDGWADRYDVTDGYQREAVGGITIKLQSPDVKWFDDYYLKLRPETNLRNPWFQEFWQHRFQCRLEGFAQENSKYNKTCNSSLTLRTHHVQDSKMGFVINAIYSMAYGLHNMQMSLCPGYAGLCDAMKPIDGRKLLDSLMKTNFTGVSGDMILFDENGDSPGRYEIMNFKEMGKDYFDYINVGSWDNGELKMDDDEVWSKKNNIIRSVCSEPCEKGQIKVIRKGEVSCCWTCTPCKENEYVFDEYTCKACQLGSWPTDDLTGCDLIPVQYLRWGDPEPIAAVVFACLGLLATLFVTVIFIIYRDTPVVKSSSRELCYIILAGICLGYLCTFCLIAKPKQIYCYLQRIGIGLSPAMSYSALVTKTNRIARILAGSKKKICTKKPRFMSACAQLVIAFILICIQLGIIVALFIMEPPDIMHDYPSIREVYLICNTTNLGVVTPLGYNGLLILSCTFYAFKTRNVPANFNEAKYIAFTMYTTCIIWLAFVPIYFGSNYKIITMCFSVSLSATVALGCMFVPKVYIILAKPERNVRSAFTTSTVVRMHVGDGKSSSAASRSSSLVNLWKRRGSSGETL
# assay summary: pCREB (Ser133) levels in primary cultures of rat cortical neurons
# Type: cell-based
# setup conditions: rat cerebral cortex neurons; in the presence of GET73 0.1 nM; read-out: EC50 of L-quisqualate, pCREB levels
quantity name: EC50 (nM)
Supply the numeric figure in nM, leaving out any unit text.

Record N[C@@H](Cn1oc(=O)[nH]c1=O)C(=O)O [L-quisqualate] , field EC50: 9

----------
# measured on: UniProt P31424
# assay summary: Inositol phosphate (phosphatidylinositol) turnover in rat hippocampus slices
# Type: cell-based
# setup conditions: rat hippocampus slices; GET73 0 (absence); read-out: EC50 of L-quisqualate, phosphatidylinositol turnover
quantity name: pEC50
By convention, pEC50 is the negative base-10 log of a molar concentration.

Record N[C@@H](Cn1oc(=O)[nH]c1=O)C(=O)O [L-quisqualate] , field pEC50: 4.40

Provenance of the data: paper PMC5895880
